Catalogue of growth inhibition values
Protocol description: NCI Yeast Anticancer Drug Screen. Data for the mlh1 rad18 strain (AID 175)
Settings: S. cerevisiae mlh1 rad18 strain growth inhibition; at 50.0 µM; hits give high values
Protocol: Growth inhibition of yeast strains with defined genetic alterations is measured as a screen for potential anti-cancer activity. Selected strains with alterations in DNA damage repair or cell cycle control were exposed to compounds and growth inhibition was measured relative to vehicle treated controls. The strain used in this assay is mlh1 rad18
About 79,000 compounds went through this panel and 15% of them were active in at least one assay; those are over-represented in the sample as a whole.
Property label: growth inhibition (%)

>>> print(df.to_string())
                                   compound  units_symbol  numeric_value
0      O=C(COc1cc(Cl)c(Cl)cc1Cl)Nc1ccccc1Br             %          -8.85
1  CC1(C)OC(C(CCl)OS(C)(=O)=O)C(C(CCl)OS(C)(=O)=O)O1 (centres undefined)             %           6.95
2  COc1cc2c(cc1OC)C(c1ccccc1)OCC2 (centres undefined)             %          -2.05
3    N#C/C(=C\N1CCNC1=S)C(=O)c1ccc2ccccc2c1             %           11.6

====

Protocol description: NCI Yeast Anticancer Drug Screen. Data for the rad50 strain (AID 155);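 further: 0% = growth of vehicle-only cultures of the same strain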
Settings: S. cerevisiae rad50 strain growth inhibition; at 50.0 µM; hits give high values
About 79,000 compounds went through this panel and 15% of them were active in at least one assay; those are over-represented in the sample as a whole.
Property label: growth inhibition (%)

>>> df
                                   compound     property_label  numeric_value
0            Cc1ccccc1NS(=O)(=O)c1c(N)ncn1C  growth inhibition           -5.2
1                                ClC1CCCCC1  growth inhibition          -12.8
2  COc1ccc(NC(=O)c2cccc([N+](=O)[O-])c2)cc1  growth inhibition            8.1
3          O=C(O)c1ccnc2c(S(=O)(=O)O)cccc12  growth inhibition           14.7
4          CCOc1cc([N+](=O)[O-])c(OCC)cc1Cl  growth inhibition          -24.6
5  CCOC(=O)/C=C(\N=P(c1ccccc1)(c1ccccc1)c1ccccc1)C(F)(F)C(F)(F)C(F)(F)C(F)(F)C(F)(F)F  growth inhibition           19.4
6  Cc1ccc(S(=O)(=O)N/N=C/C(C)c2cccnc2)cc1 (configuration not stated)  growth inhibition             -9

====

Protocol description: NCI Yeast Anticancer Drug Screen. Data for the cln2 rad14 strain (AID 165);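 further: 0% = growth equal to vehicle treated cultures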
Settings: S. cerevisiae cln2 rad14 strain, at 50.0 µM, hits give high values
Compounds without any hit were thinned out: in the full panel of roughly 79,000, 15% have a hit.
Catalogue of growth inhibition values
Property label: growth inhibition (%)

>>> print(df.to_string())
                                    compound  units_symbol  numeric_value
 0  CCCC(CC)C(=O)NC(N)=O (stereo unspecified)             %          -8.55
 1              Cc1ccc(/C=C2/NC(=S)SC2=O)cc1             %             12
 2  O=C1NC(=O)C(c2ccc(Cl)cc2)(c2cccc(Cl)c2)N1 (stereo unspecified)             %          -11.8
 3  CCC(=O)c1cc2c(cc1O)CC(C(=O)CC)c1ccccc1-2 (stereo unspecified)             %          -2.55
 4  COc1ccc(NS(=O)c2ccc(Cl)cc2)cc1 (stereo unspecified)             %           8.65
 5  CCCC(=O)OC(CCC1CCCO1)CCC1CCCO1 (stereo unspecified)             %           23.9
 6                  Cc1nnc2c3nccnc3c(Cl)nn12             %           20.3
 7            C1=Cc2c3c(c4c(c2C1)C=CC4)C=CC3             %           -2.3
 8                      CCOC(=O)C(C)C(=O)OCC             %           -3.6
 9  CCOC(=O)CC(C(=O)OCC)c1ccccc1 (stereo unspecified)             %          -6.35
10                   CCOC(=O)COc1ccc(Cl)cc1C             %           4.45
11  COc1cc2[nH]c3c(c2cc1OC)CCN[C@]31CC[C@]2(CC3c4c(cc(OC)c(O)c42)CCN3C)C[C@H]1OC (stereo partly specified)             %           -2.9
12                  CCCCCCCCCCCCc1ccc(CS)cc1             %           -1.7
13  CC(=O)SC1CS(=O)(=O)CC1SC(C)=O (stereo unspecified)             %           40.2
14           O=C1NC(N2CCCCC2)=N/C1=C\c1cccs1             %           7.05
15  NS(=O)(=O)c1ccc(NC(=S)/N=C\c2c(O)[nH]c(=O)[nH]c2=O)cc1             %           15.7

====

Catalogue of growth inhibition values
Protocol description: NCI Yeast Anticancer Drug Screen. Data for the mlh1 rad18 strain (AID 175)
Settings: S. cerevisiae mlh1 rad18 strain growth inhibition; at 50.0 µM; hits give high values
Compounds without any hit were thinned out: in the full panel of roughly 79,000, 15% have a hit.
Property label: growth inhibition (%)

>>> print(df.to_string())
                                   compound     property_label  numeric_value
0                          CCCCCCCCc1ccccc1  growth inhibition           21.8
1                          O=C(CCC(=O)NO)NO  growth inhibition          -15.9
2        N#Cc1ccccc1CC(O)(c1ccccc1)c1ccccc1  growth inhibition            9.8
3  CC1CC2(CCC1OCc1ccccc1)OCCO2 (stereo not given)  growth inhibition           -1.7
4    CC(=O)Nc1ccc(/C=C2\C(=O)Nc3ccccc32)cc1  growth inhibition           -5.9

====

Protocol description: NCI Yeast Anticancer Drug Screen. Data for the cln2 rad14 strain (AID 165);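 further: 0% = growth equal to vehicle treated cultures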
Settings: S. cerevisiae cln2 rad14 strain, at 50.0 µM, hits give high values
Procedure: Growth inhibition of yeast strains with defined genetic alterations is measured as a screen for potential anti-cancer activity. Selected strains with alterations in DNA damage repair or cell cycle control were exposed to compounds and growth inhibition was measured relative to vehicle treated controls. The strain used in this assay is cln2 rad14
Compounds without any hit were thinned out: in the full panel of roughly 79,000, 15% have a hit.
Property label: growth inhibition (%)

In [3]: df
Out[3]:
                                    compound     property_label  numeric_value
 0                               C#CCN1CCCC1  growth inhibition           22.1
 1  CCCCCCCCCCCCCC1CCC(CC)N1 (stereo unspecified)  growth inhibition           91.6
 2  CCOC(=O)NC(=O)c1cn(CCN2CCN(C(=O)NCCCCCCNC(=O)N3CCN(CCn4cc(C(=O)NC(=O)OCC)c(=O)[nH]c4=O)CC3)CC2)c(=O)[nH]c1=O  growth inhibition          -18.6
 3                  O=C1NC(=S)N/C1=C\c1cccs1  growth inhibition          -19.9
 4                  CCOC(=O)CC(=O)c1ccccc1SC  growth inhibition            4.4
 5                 C/C=C/CS(=O)(=O)Cc1ccccc1  growth inhibition          -3.95
 6                        N#CC(C#N)=C1CCNCC1  growth inhibition          -8.35
 7  C=C1CC2(C)C(=O)CCCC2OC1=O (stereo unspecified)  growth inhibition          -14.9
 8      COC(=O)c1ccc([N+](=O)[O-])cc1C(=O)OC  growth inhibition          -12.3
 9  O=C(COCC(=O)N/N=C/c1c(O)ccc2ccccc12)N/N=C/c1c(O)ccc2ccccc12  growth inhibition          -8.25
10  CC1CC2OC(=O)C(C)C2CC2(C)C(OC3OC(CO)C(O)C(O)C3O)OCCC12 (stereo unspecified)  growth inhibition            4.4
11          CCCCN(c1ccccn1)S(=O)(=O)c1ccccc1  growth inhibition            7.6
12  O=C(O)c1ccc(C(=O)O)c(C(=O)Nc2ccc3c(c2)C(=O)c2ccccc2-3)c1  growth inhibition          -2.85
13  CCN(CC)CCC(=O)N1CCc2c([nH]c3ccccc23)C1c1cccnc1 (stereo unspecified)  growth inhibition           -6.7
14               O=C(O)c1ccc(N=Nc2ccccc2)cc1  growth inhibition            0.3
15  O=C(Oc1c(Br)cc(Br)cc1C(=O)Oc1ccccc1)C(=O)Oc1c(Br)cc(Br)cc1C(=O)Oc1ccccc1  growth inhibition           28.8
16  O=S(=O)(O)C(CO)c1ccccc1 (stereo unspecified) (tested in a mixture with another compound)  growth inhibition          -31.2
17  O=C(/C=C/c1c(-c2ccccc2)[nH]c2ccccc12)c1cccc([N+](=O)[O-])c1  growth inhibition           20.9
18  CC[N+]1(C)CCC(CN2c3ccccc3Sc3ccccc32)C1 (stereo unspecified)  growth inhibition          -2.65
19                    C=C(Br)c1ccc2c(c1)OCO2  growth inhibition              8
20  CC(C(OC(=O)C1c2ccccc2-c2ccccc21)c1ccccc1)N(C)C (stereo unspecified)  growth inhibition           91.4
21                                COC(CCl)OC  growth inhibition           10.3
22                Fc1ccc(Nc2cc(F)cc(F)c2)cc1  growth inhibition            3.2
23      N[C@@H]1c2c(Br)sc(Br)c2C(=O)[C@H]1Br  growth inhibition           5.95
24  N#Cc1c(-c2ccc(Cl)cc2)cn2c1[nH]c(=O)c1cc(Br)ccc12  growth inhibition          -12.6
25  CSCCC(NC(c1ccccc1)c1ccccc1)[P+](=O)O (stereo unspecified)  growth inhibition          -5.15
26  CCOC(=O)C(NCc1cccc(C(F)(F)F)c1)(NC(=O)c1ccccc1)C(F)(F)F (stereo unspecified)  growth inhibition           17.9
27    CCN(CC)C(=O)CNC(=O)C(c1ccccc1)c1ccccc1  growth inhibition           -9.7
28  Cc1ccc(S(=O)(=O)NC(=O)NCc2cccc(Cl)c2)cc1  growth inhibition          -15.6
29       CCOC(=O)c1c(C)[nH]c(C)c1/C=C/C(=O)O  growth inhibition           1.45
30  ClCC1COC(CCc2ccccc2)O1 (stereo unspecified)  growth inhibition           64.2
31  O=C(O)C(CS(=O)(=O)O)S(=O)(=O)O (stereo unspecified)  growth inhibition          -7.15
32    COc1cc(C(=O)O)c([N+](=O)[O-])c(OC)c1OC  growth inhibition          -11.2
33  CCCC1(C(OC)OC)NC(=O)N(Cc2ccccc2)C1=O (stereo unspecified)  growth inhibition          -19.7
34                             CSc1cccc(N)c1  growth inhibition            6.1
35  C[N+](C)(C)C1C2(CCCCC2)NC(=O)C12CCCCC2 (stereo unspecified)  growth inhibition           -3.1
